Biological target: Neuropeptide Y receptor type 1 (Homo sapiens) (UniProt P25929)
Sequence (P25929 whole entry): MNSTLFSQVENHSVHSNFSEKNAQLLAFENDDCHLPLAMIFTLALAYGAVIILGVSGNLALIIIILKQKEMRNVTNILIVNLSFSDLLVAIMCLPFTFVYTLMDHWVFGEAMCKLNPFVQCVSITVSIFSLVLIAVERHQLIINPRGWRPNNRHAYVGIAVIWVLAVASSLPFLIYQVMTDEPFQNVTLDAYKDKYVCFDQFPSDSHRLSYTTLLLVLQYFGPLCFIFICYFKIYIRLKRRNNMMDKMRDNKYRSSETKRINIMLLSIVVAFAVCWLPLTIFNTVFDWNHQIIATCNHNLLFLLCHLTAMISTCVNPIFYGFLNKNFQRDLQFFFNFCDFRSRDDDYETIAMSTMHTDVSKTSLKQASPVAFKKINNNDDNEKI
Experiment: Antagonist activity at Y1R in human HEL cells assessed as inhibition of pNPY induced [Ca2+] mobilisation
Type: functional, cell-based
As shown below, each of these compounds has a reported Kb value.
recorded.endpoint: Kb (nM)

>>> numeric_result("Cc1cc(/C=C\\C=C2\\N(C)c3ccc4ccccc4c3C2(C)C)cc(C)[n+]1CCOCCOCCNC(=O)CCCCCCC(=O)/N=C(/N)NCCC[C@@H](NC(=O)C(c1ccccc1)c1ccccc1)C(=O)NCc1ccc(O)cc1.O=C([O-])C(F)(F)F")
7.8
>>> numeric_result("NCCCCCC(=O)/N=C(/N)NCCC[C@@H](NC(=O)C(c1ccccc1)c1ccccc1)C(=O)NCc1ccc(O)cc1")
95
>>> numeric_result("Cc1cc(/C=C/c2cc3c4c(c2)CCCN4CCC3)cc(C)[n+]1CCOCCOCCOCCC(=O)/N=C(/N)NCCC[C@@H](NC(=O)C(c1ccccc1)c1ccccc1)C(=O)NCc1ccc(O)cc1.O=C([O-])C(F)(F)F")
4.1
>>> numeric_result("NCCCCNC(=O)/N=C(/N)NCCC[C@@H](NC(=O)C(c1ccccc1)c1ccccc1)C(=O)NCc1ccc(O)cc1")
16
>>> numeric_result("Cc1cc(/C=C/C=C/c2ccc(N(C)C)cc2)cc(C)[n+]1CCOCCOCC(=O)/N=C(/N)NCCC[C@@H](NC(=O)C(c1ccccc1)c1ccccc1)C(=O)NCc1ccc(O)cc1.O=C([O-])C(F)(F)F")
11

----------
Biological target: Neuropeptide Y receptor type 1 (Homo sapiens)
Assay: Binding affinity at Y1R in human MCF-7 cells by flow cytometry
Type: cell-based, MCF7
recorded.endpoint: Kd (nM)

>>> numeric_result("CN(C)c1ccc(/C=C/C=C/c2sc3ccccc3[n+]2CCCC(=O)NCCCCNC(=O)/N=C(/N)NCCC[C@@H](NC(=O)C(c2ccccc2)c2ccccc2)C(=O)NCc2ccc(O)cc2)cc1.O=C([O-])C(F)(F)F")
5

----------
Biological target: Neuropeptide Y receptor type 1 (Homo sapiens)
Assay: Antagonist activity at Y1R in human HEL cells assessed as inhibition of pNPY induced [Ca2+] mobilisation
Assay type: functional, cell-based
recorded.endpoint: Kb (nM)

>>> numeric_result("Cc1cc(/C=C/C=C2\\N(C)c3ccc4ccccc4c3C2(C)C)cc(C)[n+]1CCOCCOCCNC(=O)CCCCC(=O)/N=C(/N)NCCC[C@@H](NC(=O)C(c1ccccc1)c1ccccc1)C(=O)NCc1ccc(O)cc1.O=C([O-])C(F)(F)F")
8
>>> numeric_result("CN(C)c1ccc(/C=C/C=C/c2sc3ccccc3[n+]2CCCC(=O)NCCCCNC(=O)/N=C(/N)NCCC[C@@H](NC(=O)C(c2ccccc2)c2ccccc2)C(=O)NCc2ccc(O)cc2)cc1.O=C([O-])C(F)(F)F")
0.7
>>> numeric_result("Cc1cc(/C=C/c2cc3c4c(c2)CCCN4CCC3)cc(C)[n+]1CCCCNC(=O)/N=C(/N)NCCC[C@@H](NC(=O)C(c1ccccc1)c1ccccc1)C(=O)NCc1ccc(O)cc1.O=C([O-])C(F)(F)F")
7.2
>>> numeric_result("Cc1cc(/C=C/c2cc3c4c(c2)CCCN4CCC3)cc(C)[n+]1CCN(CCNC(=O)CCCCC(=O)/N=C(\\N)NCCC[C@@H](NC(=O)C(c1ccccc1)c1ccccc1)C(=O)NCc1ccc(O)cc1)CCNC(=O)CCCCC(=O)/N=C(\\N)NCCC[C@@H](NC(=O)C(c1ccccc1)c1ccccc1)C(=O)NCc1ccc(O)cc1.O=C([O-])C(F)(F)F")
1.2
